Test system: DU-145 prostate
EXPERIMENT: NCI tumour cell line growth inhibition, 48 h
MEASURED ENDPOINT: TGI (µM)
Write it as a number; the unit µM goes unstated.

The reported value for NC(CSC(c1ccccc1)(c1ccccc1)c1ccc(Cl)cc1)C(=O)O (stereo not drawn) in terms of TGI is 0.863

The reported value for CCCCCCCC/C=C/CCCCCCCC1=NCC[N+]1(CCO)CCO in terms of TGI is 16.2

The reported value for CC1OC(OC2C(O[C@H]3CC[C@@]4(C)[C@@H](CC[C@@H]5[C@@H]4CC[C@]4(C)[C@@H]6[C@H](C[C@@H]54)O[C@]4(CC[C@@H](C)CO4)[C@H]6C)C3)OC(CO)C(OC3OC(CO)C(O)C(OC4OCC(O)C(O)C4O)C3OC3OCC(O)C(O)C3O)C2O)C(O)C(O)C1O (stereo partly drawn) in terms of TGI is 2.73

The reported value for CCNC1(c2cccc(C)c2)OC(C)(C)c2cccc3cccc1c23 (stereo not drawn) in terms of TGI is 36.1

---

System: HCT-116 colon
EXPERIMENT: NCI tumour cell line growth inhibition, 48 h
Exercise: for every item that follows, state its recorded TGI.
Write it as a number; the unit µM goes unstated.

The reported value for Nc1c(-c2nc3ccccc3s2)c2ccc([N+](=O)[O-])cc2c(=O)n1-c1cccc(C(=O)O)c1 in terms of TGI is 45.1

The reported value for CCCc1cc(=O)oc2c3c(c4c(c12)OC(C)(C)C=C4)O[C@@H](C)[C@H](C)C3=O in terms of TGI is 24.2

---

Tested on: OVCAR-3 ovarian
EXPERIMENT: NCI tumour cell line growth inhibition, 48 h
Respond with fulfilled for TGI values of 10 µM and above, not fulfilled for values below.

Prompt line: State whether the measured TGI reaches 10 µM, counting equality as reaching it, for Cc1ccc(NC(=O)NC(=O)c2ccc([N+](=O)[O-])cc2[N+](=O)[O-])cc1Oc1ncc(Cl)cn1
Response line: fulfilled

Prompt line: State whether the measured TGI reaches 10 µM, counting equality as reaching it, for O=C(CC1(O)C(=O)Nc2ccccc21)c1ccccc1Cl (stereo not given)
Response line: fulfilled

Prompt line: State whether the measured TGI reaches 10 µM, counting equality as reaching it, for O=C(O)C1C(C(=O)Nc2ccc3c(c2)Cc2ccccc2-3)C2(Cl)C(Cl)=C(Cl)C1(Cl)C2(Cl)Cl (stereo not given)
Response line: fulfilled

Prompt line: State whether the measured TGI reaches 10 µM, counting equality as reaching it, for CC(C)(C)NN=C1C(C)(C)C(=NNC(C)(C)C)C1(C)C
Response line: fulfilled

Prompt line: State whether the measured TGI reaches 10 µM, counting equality as reaching it, for Cn1c2c(c3ccccc31)C1CCCCC1C1C(=O)NC(=O)C21 (stereo not given)
Response line: fulfilled

Prompt line: State whether the measured TGI reaches 10 µM, counting equality as reaching it, for CCCCC(=O)Nc1ccc2cc(C(=O)OC)c(ON3C(=O)c4ccccc4C3=O)nc2n1
Response line: fulfilled

Prompt line: State whether the measured TGI reaches 10 µM, counting equality as reaching it, for CC1(C)CC(=O)C2=C(C1)c1c(ccc3ccccc13)NC2c1cn(Cc2ccc(Cl)cc2)c2ccccc12 (stereo not given)
Response line: fulfilled

Prompt line: State whether the measured TGI reaches 10 µM, counting equality as reaching it, for O=C(OCc1ccccc1)N1CCN(/[N+]([O-])=N/Oc2ccc([N+](=O)[O-])cc2[N+](=O)[O-])CC1
Response line: not fulfilled

Prompt line: State whether the measured TGI reaches 10 µM, counting equality as reaching it, for O=[N+]([O-])c1ccc(-c2nc(-c3ccccc3)c(-c3ccccc3)n2-c2ccccc2)cc1
Response line: not fulfilled
